Reference source for all entries: paper PMC8229286

Test: Chemical stability in PBS pH 7.4
Measurement Parameters: between 0–2 h at 37 °C in PBS, Stable = no chemical change detected during the evaluation time (4 h)
Recorded Endpoint: Chemical Stability Shelf-Life

### Prompt # Chemical Stability Shelf-Life lookup, item COc1cc(CCC(=O)CC(O)CCc2ccc(O)c(OC)c2)ccc1O (stereo not shown) [6HC, hexahydrocurcumin]
### Response Stable ^#

### Prompt For the compound COc1cc(CCC(O)CC(O)CCc2ccc(O)c(OC)c2)ccc1O (stereo not shown) [8HC, octahydrocurcumin] , what Chemical Stability Shelf-Life is on record?
### Response Stable ^#

### Prompt GET /values?readout=Chemical Stability Shelf-Life&item= COc1cc(CCC(O)CC(O)CCc2ccc(O)cc2)ccc1O (stereo not shown) [8HDC, octahydro-demethoxycurcumin]
### Response Stable ^#

### Prompt Please look up its Chemical Stability Shelf-Life: COc1cc(/C=C/C(O)=C/C(=O)/C=C/c2ccc(O)cc2)ccc1O [DMC, demethoxycurcumin, reference compound]
### Response 22.1 ± 0.2 min

###

Test: GI-PAMPA permeability
Measurement Parameters: PBS pH 7.4; 37 °C, 4 h
Recorded Endpoint: GI-PAMPA MR (membrane retention)

### Prompt Any idea what its GI-PAMPA MR (membrane retention) is? The compound is COc1cc(CCC(=O)CC(O)CCc2ccc(O)c(OC)c2)ccc1O (stereo not shown) [6HC, hexahydrocurcumin]
### Response 5.0 ± 0.6 %

### Prompt Name the recorded GI-PAMPA MR (membrane retention) for COc1cc(/C=C/C(O)=C/C(=O)/C=C/c2ccc(O)cc2)ccc1O [DMC, demethoxycurcumin, reference compound] .
### Response 85.6 ± 0.5%

***
### Prompt May I ask what GI-PAMPA MR (membrane retention) has been recorded for COc1cc(CCC(O)CC(O)CCc2ccc(O)c(OC)c2)ccc1O (stereo not shown) [8HC, octahydrocurcumin] ?
### Response 4.4 ± 0.2 %

### Prompt Field request: GI-PAMPA MR (membrane retention) | item: COc1cc(CCC(O)CC(O)CCc2ccc(O)cc2)ccc1O (stereo not shown) [8HDC, octahydro-demethoxycurcumin]
### Response 1.7 ± 0.3 %

###

Test: BBB-PAMPA permeability
Measurement Parameters: PBS pH 6.5→pH 7.4; 37 °C, 4 h
Recorded Endpoint: BBB-PAMPA MR (membrane retention) (%)
Respond numerically; units are % and should not be typed.

### Prompt What value of BBB-PAMPA MR (membrane retention) has been reported for the following compound? COc1cc(CCC(O)CC(O)CCc2ccc(O)c(OC)c2)ccc1O (stereo not shown) [8HC, octahydrocurcumin]
### Response 8.9

### Prompt Report BBB-PAMPA MR (membrane retention) for COc1cc(/C=C/C(O)=C/C(=O)/C=C/c2ccc(O)cc2)ccc1O [DMC, demethoxycurcumin, reference compound] please.
### Response 98.3

### Prompt Query (compound): COc1cc(CCC(O)CC(O)CCc2ccc(O)cc2)ccc1O (stereo not shown) [8HDC, octahydro-demethoxycurcumin] ; field requested: BBB-PAMPA MR (membrane retention)
### Response 14.9

Continuing:
### Prompt Which BBB-PAMPA MR (membrane retention) is listed for COc1cc(CCC(=O)CC(O)CCc2ccc(O)c(OC)c2)ccc1O (stereo not shown) [6HC, hexahydrocurcumin] ?
### Response 13.3

###

Test: BBB-PAMPA permeability
Measurement Parameters: PAMPA
Recorded Endpoint: Papp at 4 h, 100 µM
Answer format reminder: number followed by unit.

Worked set:
### Prompt Give the measured Papp at 4 h, 100 µM of COc1cc(CCC(=O)CC(O)CCc2ccc(O)c(OC)c2)ccc1O (stereo not drawn) [6HC, hexahydrocurcumin] .
### Response 1.25 ×10⁻⁶ cm/s

### Prompt Would you mind telling me what Papp at 4 h, 100 µM value was observed for COc1cc(CCC(O)CC(O)CCc2ccc(O)c(OC)c2)ccc1O (stereo not drawn) [8HC, octahydrocurcumin] ?
### Response 0.97 ×10⁻⁶ cm/s

Let's switch to this compound now.
### Prompt Record request: Papp at 4 h, 100 µM value, item COc1cc(CCC(O)CC(O)CCc2ccc(O)cc2)ccc1O (stereo not drawn) [8HDC, octahydro-demethoxycurcumin]
### Response 0.53 ×10⁻⁶ cm/s

###

Test: Experimental logP in octanol-water and toluene-water systems
Measurement Parameters: octanol/water
Recorded Endpoint: logP at 24 h
Response field accepts a number only; no unit should be typed.

### Prompt logP at 24 h for COc1cc(CCC(=O)CC(O)CCc2ccc(O)c(OC)c2)ccc1O (centres unmarked) [6HC, hexahydrocurcumin] ?
### Response 2.15

### Prompt logP at 24 h for COc1cc(CCC(O)CC(O)CCc2ccc(O)c(OC)c2)ccc1O (centres unmarked) [8HC, octahydrocurcumin] ?
### Response 2.3

###

Test: Kinetic solubility in PBS
Measurement Parameters: PBS with 5% (v/v) DMSO, pH 7.4, aqueous with cosolvent or surfactant or cyclodextrin, kinetic from dmso stock
Entries and their measured solubility kinetic at 2 h follow.
Quick reminder: number only, in µM, skip the unit.

Some entries whose results are on file:
### Prompt Fill in the blank: the reported solubility kinetic at 2 h of COc1cc(CCC(O)CC(O)CCc2ccc(O)cc2)ccc1O (stereo not shown) [8HDC, octahydro-demethoxycurcumin] is ____.
### Response 68.7

### Prompt I am curious: what solubility kinetic at 2 h value has been reported for COc1cc(/C=C/C(O)=C/C(=O)/C=C/c2ccc(O)cc2)ccc1O [DMC, demethoxycurcumin, reference compound] ?
### Response 5.7

### Prompt So what's the measured solubility kinetic at 2 h for this one? COc1cc(CCC(=O)CC(O)CCc2ccc(O)c(OC)c2)ccc1O (stereo not shown) [6HC, hexahydrocurcumin]
### Response 74.1

Next, consider the following molecule.
### Prompt # solubility kinetic at 2 h lookup, item COc1cc(CCC(O)CC(O)CCc2ccc(O)c(OC)c2)ccc1O (stereo not shown) [8HC, octahydrocurcumin]
### Response 72.9

###

Test: Metabolic stability in human liver microsomes
Measurement Parameters: human, human liver microsomes, pH 7.4
Reported half-life at 25 µM values for the following compounds.
Value expressed in h; do not type the unit.

### Prompt I'd like to know its half-life at 25 µM. The compound in question is COc1cc(CCC(O)CC(O)CCc2ccc(O)cc2)ccc1O (stereo not drawn) [8HDC, octahydro-demethoxycurcumin]
### Response 6.08

### Prompt Which half-life at 25 µM reading was recorded for the compound COc1cc(/C=C/C(O)=C/C(=O)/C=C/c2ccc(O)cc2)ccc1O [DMC, demethoxycurcumin, reference compound] ?
### Response 0.63

### Prompt Name the recorded half-life at 25 µM for COc1cc(CCC(O)CC(O)CCc2ccc(O)c(OC)c2)ccc1O (stereo not drawn) [8HC, octahydrocurcumin] .
### Response 3.86

###

Test: GI-PAMPA permeability
Measurement Parameters: PAMPA, pH 7.4
Reported Papp at 4 h, 100 µM values for a set of compounds
Quick note: give the figure in ×10⁻⁶ cm/s, leave out the unit.

# example entries with known answers
### Prompt Any idea what Papp at 4 h, 100 µM was measured for COc1cc(CCC(=O)CC(O)CCc2ccc(O)c(OC)c2)ccc1O (stereo not drawn) [6HC, hexahydrocurcumin] ?
### Response 0.37

### Prompt What does the record list as Papp at 4 h, 100 µM for COc1cc(CCC(O)CC(O)CCc2ccc(O)c(OC)c2)ccc1O (stereo not drawn) [8HC, octahydrocurcumin] ?
### Response 0.24

Now for another entry.
### Prompt What value of Papp at 4 h, 100 µM has been recorded for this entry: COc1cc(/C=C/C(O)=C/C(=O)/C=C/c2ccc(O)cc2)ccc1O [DMC, demethoxycurcumin, reference compound]
### Response 1.06

###

Test: Metabolic stability in human liver microsomes
Measurement Parameters: human, human liver microsomes, pH 7.4
Recorded Endpoint: CLint scaled at 25 µM (mL/min/kg)
A number alone suffices; assume mL/min/kg.

Study these solved cases before continuing.
### Prompt What does the record list as CLint scaled at 25 µM for COc1cc(CCC(O)CC(O)CCc2ccc(O)cc2)ccc1O (stereo not shown) [8HDC, octahydro-demethoxycurcumin] ?
### Response 0.9

### Prompt Entry under review: COc1cc(CCC(O)CC(O)CCc2ccc(O)c(OC)c2)ccc1O (stereo not shown) [8HC, octahydrocurcumin] . Reported CLint scaled at 25 µM?
### Response 1.4

### Prompt Returns the measured CLint scaled at 25 µM for the input compound. Input: COc1cc(/C=C/C(O)=C/C(=O)/C=C/c2ccc(O)cc2)ccc1O [DMC, demethoxycurcumin, reference compound]
### Response 8.3

Further cases:
### Prompt Entry COc1cc(CCC(=O)CC(O)CCc2ccc(O)c(OC)c2)ccc1O (stereo not shown) [6HC, hexahydrocurcumin] : reported CLint scaled at 25 µM = ?
### Response 3.3
